Data provenance: ChEMBL document CHEMBL1201862

The following molecules are shown together with reported GI50 values.
Test system: U-251
Assay: NCI tumour cell line growth inhibition, 48 h
Calls of active or inactive are those of the source. Cut-off read from the data, not from the text of the source: active = GI50 up to about 1.1 µM and inactive = higher.
OBSERVABLE: GI50

>>> result("CCN(CC)CCC1CCCCN1CC(=O)N1c2ccccc2NC(=O)CC1C (centres undefined)")
"> 100 µM (inactive)"
>>> result("COc1cc(Br)cc2cc(-c3cn4c(n3)sc3ccccc34)c(=O)oc12")
"25.2 µM (inactive)"
>>> result("O[C@H]1[C@H](O)[C@@H](O)[C@H](O)[C@@H](O)[C@H]1O [INOSITOL]")
"> 1000 µM (inactive)"
>>> result("O=C1C=CC=C/C1=C1\\N=C(c2ccccc2OCC(=O)c2ccccc2)SS1")
"44.8 µM (inactive)"
>>> result("CCOC(=O)Cn1c(=O)[nH]c(=O)c2[nH]cnc21")
"> 100 µM (inactive)"
>>> result("C[N+](C)(C)CC1CCCc2ccccc2C1=O (centres undefined)")
"6.71 µM (inactive)"
>>> result("O=C(/C=C/c1ccc(Oc2cc(C(=O)/C=C/c3ccc(O)cc3)c(O)cc2O)cc1)c1ccc(O)cc1O [RHUSCHALCONE II]")
"3.89 µM (inactive)"
>>> result("Cc1cc(NCCCCCCNc2cc(C)nc3ccc(N)cc23)c2cc(N)ccc2n1")
"42.3 µM (inactive)"
>>> result("C=CC(C)(C)n1cc(C2=C(O)C(=O)C(c3cn(C(C)(C)C=C)c4ccccc34)=C(OC(C)=O)C2=O)c2ccccc21")
"0.426 µM (active)"

###

The following compounds are shown together with reported GI50 values.
System: HT-29
Test: NCI tumour cell line growth inhibition, 48 h
Activity calls are given as the source filed them. Cut-off read from the data, not from the text of the source: active = GI50 up to about 1.1 µM and inactive = higher.
OBSERVABLE: GI50

>>> result("Cc1[nH]c2ccccc2c1-c1cc(-c2cc(-c3c(C)[nH]c4ccccc34)nc(N)n2)nc(N)n1")
"> 100000 nM (inactive)"
>>> result("O=S1(=O)OCCOS(=O)(=O)C1Cc1cccc2ccccc12")
"25500 nM (inactive)"
>>> result("CCOC(=O)CCC(NC(=O)c1ccc(Oc2nc3c(N)cc(C(F)(F)F)cc3nc2-c2ccccc2)cc1)C(=O)OCC (centres undefined)")
"2430 nM (inactive)"
>>> result("COC1(OC)C=CC(=O)C=C1")
"3110 nM (inactive)"
>>> result("COc1ccc(C2=CC(c3ccc4c(c3)OCO4)c3c(c4ccccc4oc3=O)O2)cc1OC (centres undefined)")
"536 nM (active)"
>>> result("Brc1ccc2c(-c3nc(-c4c[nH]c5ccc(Br)cc45)cs3)c[nH]c2c1")
"1860 nM (inactive)"
>>> result("O=[N+]([O-])c1cccc(C(O)/C(=N/Nc2ccccc2)C2Nc3ccc([N+](=O)[O-])cc3N=C2O)c1 (centres undefined)")
"50900 nM (inactive)"
>>> result("COC(=O)[C@@]12OC[C@]34C([C@@H](O)C1O)[C@@]1(C)CC(=O)C(O)=C(C)C1C[C@H]3OC(=O)[C@H](OC(=O)CC(C)C(F)(F)F)[C@H]42 (some centres undefined)")
"13.3 nM (active)"
>>> result("COc1ccc(C(=O)c2ccc(-n3c4ccccc4c4ccc5c(c43)C(=O)C=CC5=O)cc2)cc1")
"1060 nM (active)"

###

System: UACC-257
Test: NCI tumour cell line growth inhibition, 48 h
The source made the active and inactive calls. Cut-off read from the data, not from the text of the source: active = GI50 up to about 1.1 µM and inactive = higher. Where a SMILES comes first, the peptide text is derived from it. The star is where a group is joined. Cbz = O=C(OCc1ccccc1)*; Boc = CC(C)(C)OC(=O)*; OSu = O=C1CCC(=O)N1O*; Bn = c1ccc(C*)cc1
Outcome codes: active, inactive

>>> answer_label("O=Cc1ccc2c(c1I)OCO2")
"inactive"
>>> answer_label("O=c1oc2ccccc2n1P(=O)(Oc1ccc(Cl)cc1)n1c(=O)oc2ccccc21")
"inactive"
>>> answer_label("NNC(=O)c1cc(=O)[nH][nH]1")
"inactive"
>>> answer_label("Nc1ccc2c(O)cc(O)nc2n1")
"inactive"
>>> answer_label("COC(=O)CC1C2CC3C(C2=O)C13 (stereo unspecified)")
"inactive"
>>> answer_label("Clc1cc(N/N=C(\\c2ccccc2)c2ccccn2)ncn1")
"active"
>>> answer_label("Cc1cc(NS(=O)(=O)c2ccc(NC(=O)c3cccc4c(=O)c5ccccc5[nH]c34)cc2)no1")
"inactive"
>>> answer_label("O=[N+]([O-])c1cccc(C(O)/C(=N/Nc2ccccc2)C2Nc3ccc([N+](=O)[O-])cc3N=C2O)c1 (stereo unspecified)")
"inactive"
>>> answer_label("Nc1nncc2[nH]nnc12")
"inactive"
>>> answer_label("CN1C(c2ccccc2)=CC(=O)C(O)=C(c2ccccc2)S1(=O)=O")
"inactive"
>>> answer_label("O=C1C(NS(=O)(=O)c2ccccc2)=C(N(Cc2ccccc2)Cc2ccccc2)C(=O)c2ccccc21")
"inactive"
>>> answer_label("Cc1c2cccc-2c2cc(O)c3ccccc3c2n1-c1ccc(N(C)C)cc1")
"inactive"
>>> answer_label("C=CC(C)(C)n1cc(C2=C(O)C(=O)C(c3cn(C(C)(C)C=C)c4ccccc34)=C(OC(C)=O)C2=O)c2ccccc21")
"active"
>>> answer_label("Cc1ccc(S(=O)(=O)NC(=O)NNc2ccc(F)cc2)cc1")
"inactive"
>>> answer_label("Brc1ccc2c(-c3nc(-c4c[nH]c5ccc(Br)cc45)cs3)c[nH]c2c1")
"inactive"
>>> answer_label("C=C1CC[C@@H](Br)C(C)(C)[C@]12CCC(C)(O)C(Cl)C2 (stereo partly specified)")
"inactive"
>>> answer_label("COc1cccc(-c2nc(-c3cnccn3)n(C/C=C/c3ccccc3)n2)c1")
"inactive"
>>> answer_label("Cc1ccccc1/N=N/c1c(O)ccc2ccccc12")
"inactive"
>>> answer_label("O=C1OS2(OC(=O)c3cccc4cccc2c34)c2ccccc21 (stereo unspecified)")
"inactive"
>>> answer_label("CC1(C)OC[C@H](C(=N)OCc2ccccc2)O1")
"inactive"
>>> answer_label("COc1cc(O)c(C(=O)/C=C/c2ccc(OC)c(OCc3ccccc3)c2)c(OC)c1")
"inactive"
>>> answer_label("Brc1ccc2[nH]cc([C@@H]3CN[C@@H](c4c[nH]c5ccc(Br)cc45)CN3)c2c1")
"inactive"
>>> answer_label("COc1ccc(C2C3=CONC3CC3CCCCC32)cc1 (stereo unspecified)")
"inactive"
>>> answer_label("CC(C)(C)OC(=O)NC(Cc1ccc(OCc2ccccc2)cc1)C(=O)NC(CCCCNC(=O)OCc1ccccc1)C(=O)ON1C(=O)CCC1=O (stereo unspecified) (Boc-Tyr(Bn)-Lys(Cbz)-OSu; configuration not given here)")
"inactive"
>>> answer_label("COc1cc2c(c(OC)c1OC)CCNC2C1=C(O)COC1=O (stereo unspecified)")
"inactive"
>>> answer_label("O=C1C[C@@H](c2ccc(O)cc2)[C@@]2(O1)C(=O)O[C@H]([C@@H](O)CO)[C@@H]2O")
"inactive"
>>> answer_label("CCc1cc(C)cc2[n+]1CC=C2.[O-][Cl+3]([O-])([O-])[O-]")
"inactive"
>>> answer_label("C=C(C)[C@H]1C=C[C@@H](OC(=O)c2cccnc2)[C@@]23CO[C@@](C)([C@H](OC(=O)c4cccnc4)[C@@]4(OC(C)=O)C[C@H](C)[C@H](OCCC)[C@@H]4[C@H]2OC(C)=O)[C@H]13")
"inactive"
>>> answer_label("CC[n+]1c(/C=C/c2ccc(N(CCCl)CCCl)cc2)ccc2cc(NC(=O)/C=C/c3ccccc3)ccc21")
"active"
>>> answer_label("CC(=O)Nc1ccc(S(=O)(=O)N/N=C/c2cc(I)cc([N+](=O)[O-])c2O)cc1")
"inactive"
>>> answer_label("O=C(O)[C@H](c1ccccc1)[C@@H](C(=O)O)c1ccccc1")
"inactive"
>>> answer_label("Cc1cccc(CP(Cc2cccc(C)c2)CC2(Cp3c4ccccc4c4ccccc43)COC2)c1")
"inactive"
>>> answer_label("CC(=O)OC/C=C(\\C)CCC(Br)C(C)(C)Br (stereo unspecified)")
"inactive"
>>> answer_label("N#CC1C(=O)NC(=O)C1=O (stereo unspecified)")
"inactive"
>>> answer_label("Cc1nn(C)c(=O)c2nn(-c3ccccc3)c(C)c12")
"inactive"
>>> answer_label("Cn1c(N2CCCC2)c(C=O)c(=O)n(C)c1=O")
"inactive"
>>> answer_label("CC(C)C(C)C(O)C(O)C(C)C1CCC2C3COC(=O)C4CC(O)C(O)CC4(C)C3CCC12C (stereo unspecified)")
"inactive"
>>> answer_label("N/C(S)=N/N=C/c1ncccc1O")
"inactive"
>>> answer_label("O=[N+]([O-])c1ccccc1C1N2CCCCC2[C@@H]2c3[nH]c4ccccc4c3CCN12 (stereo partly specified)")
"inactive"
>>> answer_label("C/C=C/[C@@H]1O[C@H](CC#C[Si](C)(C)C)[C@@]2(C=O)C(C)=CC[C@H](C(C)C)[C@@H]12")
"inactive"
>>> answer_label("FC(F)(F)P1C2C=CC(CC2)C1(F)F (stereo unspecified)")
"inactive"
